test system: SK-MEL-5 melanoma; experiment: NCI tumour cell line growth inhibition, 48 h
Value kind: TGI (µM)
Record the value in µM, omitting the unit from your answer.

Observe how each entry below is paired with its result.
Compound	Measurement target	Value kind	Recorded value
N#CC(C#N)=C/C=C(\Sc1ccc(F)cc1Cl)c1ccc(Cl)cc1	SK-MEL-5 melanoma	TGI	8.58
Cc1nc2sc(C(=O)c3ccc(Cl)cc3)c(N)c2c(-c2ccccc2Cl)c1C(=O)Nc1ccccc1	SK-MEL-5 melanoma	TGI	36.6
O=C(CC1C=Cc2ccccc2N1C(=O)c1ccccc1)c1ccccc1 (stereo not drawn)	SK-MEL-5 melanoma	TGI	30.2
CCCCCCCCCCCCCC[n+]1ccc(C)cc1	SK-MEL-5 melanoma	TGI	1.81

Entry COC(=O)C1OC(O[C@H]2CC[C@]3(C)[C@H]4CC=C5[C@@H]6CC(C)(C)CC[C@]6(C(=O)OC6OCC(O)C(O)C6OC6OC(C)C(OC7OCC(O)C(O)C7O)C(OC7OCC(O)(CO)C7O)C6O)[C@H](O)C[C@@]5(C)[C@]4(C)CC[C@H]3C2(C)C)C(O)C(O)C1O (stereo partly drawn) ; TGI = 16.6

Entry "C#CCN(Cc1ccc2nc(-c3ccccc3)c(N)nc2c1)c1cc(OC)c(OC)c(OC)c1" ; TGI = 25.7

Entry O=C(CCCN1CCC(C(O)c2ccc(F)cc2)CC1)c1ccc(F)cc1 (stereo not drawn) ; TGI = 99.3

Entry CCCCOC(=O)C1CC[C@H]2[C@@H]3CCc4cc(OC(=O)c5cccc6c(=O)c7ccccc7[nH]c56)ccc4[C@H]3CC[C@]12C (stereo partly drawn) ; TGI = 12.8

Entry CC1OC2OC3C(OCC(O)C3O)OC(=O)[C@]34CCC(C)(C)CC3C3=CCC5[C@@]6(C)C[C@H](O)[C@H](OC7OC(CO)C(O)C(O)C7OC7OCC(OC(=O)CC(C)(O)CC(=O)OC1C(O)C2O)C(O)C7O)[C@@](C)(CO)C6CC[C@@]5(C)[C@]3(C)CC4 (stereo partly drawn) ; TGI = 16.3

Entry "Cc1cc2nc3c(C#N)c4c(c(-c5ccc(Cl)cc5)n3c2cc1C)CCC4" ; TGI = 40.3

Entry "COc1cc2c(/C=C3/C(=O)N(C)c4ccc(O)cc43)c(Cl)[nH]c2cc1C" ; TGI = 6.35

Entry "COc1cc(Cl)cc(-c2nn(-c3cccc(NC(=O)Nc4ccc(Cl)c(Cl)c4)c3)cc2-c2ccncc2)c1" ; TGI = 3.17

Entry CCC(C)C(=O)OCC(=O)c1ccc(-c2ccccc2)cc1 (stereo not drawn) ; TGI = 72.6

Entry C=C1C(=O)OC2CC(C)C3C4OC4C(O)C3(C)C(O)C12 (stereo not drawn) ; TGI = 87.1

Entry "COc1cc2c(/C=C3/C(=O)Nc4ccc(Cl)cc43)c(Cl)[nH]c2cc1C" ; TGI = 10.4

Reference source for all entries: PubChem BioAssay (NCI)
